Molecular target: UniProt:P08684
Sequence (P08684 whole entry): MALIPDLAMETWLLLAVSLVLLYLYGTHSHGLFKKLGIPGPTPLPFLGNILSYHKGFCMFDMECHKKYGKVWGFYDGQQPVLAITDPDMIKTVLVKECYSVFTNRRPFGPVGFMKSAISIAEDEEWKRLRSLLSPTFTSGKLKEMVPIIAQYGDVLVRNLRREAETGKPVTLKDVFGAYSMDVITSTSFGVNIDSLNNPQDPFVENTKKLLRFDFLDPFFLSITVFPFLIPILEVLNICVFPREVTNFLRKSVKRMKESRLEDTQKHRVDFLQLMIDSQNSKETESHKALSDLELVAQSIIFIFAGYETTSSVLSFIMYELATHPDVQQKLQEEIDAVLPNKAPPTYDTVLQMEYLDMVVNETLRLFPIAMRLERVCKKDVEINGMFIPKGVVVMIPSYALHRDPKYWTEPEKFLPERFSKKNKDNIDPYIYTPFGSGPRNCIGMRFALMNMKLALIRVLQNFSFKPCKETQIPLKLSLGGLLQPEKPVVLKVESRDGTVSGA

{"columns": ["smiles_entry", "IC50"],
 "data": [
  ["Cl.Cn1nccc1-c1ccc(C(=O)N[C@@H]2CNCC[C@H]2c2ccc(F)c(F)c2)c(F)c1", "> 100 µM"]
]}

* * *

Molecular target: Cyclin-dependent kinase 2 (Homo sapiens)

{"columns": ["smiles_entry", "assay_system", "IC50"],
 "data": [
  ["Cl.Cn1nccc1-c1ccc(C(=O)N[C@@H]2CNCC[C@H]2c2ccc(F)c(F)c2)c(F)c1", "Cyclin-dependent kinase 2 (Homo sapiens)", "> 10 µM"]
]}

* * *

# pIC50 per record follows
Tested on: HGC-27
Experiment: Antiproliferative activity against human HGC-27 cells assessed as inhibition of cell growth incubated for 72 hrs by SRB assay
Assay type: functional, cell-based
Conditions: HGC-27, 72 h
pIC50: −log10 of the molar value.
result_type: pIC50

{"columns": ["smiles_entry", "result_type", "observed_measurement"],
 "data": [
  ["Cn1nccc1-c1ccc(C(=O)N[C@@H]2CNCC[C@H]2c2ccc(F)c(F)c2)c(Cl)c1", "pIC50", 5.85],
  ["CCn1nccc1-c1ccc(C(=O)N[C@@H]2CNCC[C@H]2c2ccc(F)c(F)c2)c(F)c1", "pIC50", 5.45],
  ["Cn1nccc1-c1cc(F)c(C(=O)N[C@@H]2CNCC[C@H]2c2ccc(F)c(F)c2)c(Cl)c1", "pIC50", 5.77],
  ["Cn1nccc1-c1cc(F)c(C(=O)N[C@@H]2CNCC[C@H]2c2ccc(F)cc2)c(F)c1", "pIC50", 5.14],
  ["Cn1nccc1-c1ccc(C(=O)N[C@@H]2CNCC[C@H]2c2cc(F)cc(F)c2)c(F)c1", "pIC50", 6.29]
]}
